- Tested on: GCN2(Kin.Dom.2,S808G)
- Construct: gene EIF2AK4
- CONDITION_SET: concentration: 1 μM, replicates: in singlicate; n = 1;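 note: KINOMEscan kinase panel screen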
PROPERTY_LABEL: %Inh (%)
Write the number in % without appending the unit.

The cases that follow already have their %Inh on record.
| COMPOUND | SYSTEM_TESTED | UNITS_LABEL | VALUE_REPORTED |
| --- | --- | --- | --- |
| O=c1cc(N2CCOCC2)nc2n(Cc3cccc4ccccc34)ccn12 [GSK2333389] | GCN2(Kin.Dom.2,S808G) | % | 1 |
| Cl.Oc1cccc(Nc2ccnc3cc(-c4ccncc4)ccc23)c1 [GW494601] | GCN2(Kin.Dom.2,S808G) | % | 0 |

Exercise: # return %Inh of CNc1ncnc2[nH]ncc12 [SKF-18355] (system: GCN2(Kin.Dom.2,S808G))
Solution: 0

Exercise: # return %Inh of O=c1cc(N2CCOCC2)nc2n(Cc3cccc(C(F)(F)F)c3)ccn12 [GSK2297543] (system: GCN2(Kin.Dom.2,S808G))
Solution: 0

###

Each entry below lists one item and its recorded %Inh value.
- Tested on: EPHA4
- CONDITION_SET: concentration: 1 μM, replicates: in singlicate; n = 1
Answer as a quantity: numeral, then unit.

The cases that follow already have their %Inh on record.
| COMPOUND | %Inh |
| --- | --- |
| Fc1ccc(-c2ncn(CCCN3CCOCC3)c2-c2cccnc2)cc1 [SB-211743] | 0% |
| CCn1cnc2c(N)ncnc21 [GW345098] | 7% |
| Cc1ccc(C(=O)NCC(N)=O)cc1-n1c(C)cc(OCc2ccc(F)cc2F)c(Br)c1=O | 12% |

Exercise: Please look at this compound and report its %Inh: c1ccc(-c2n[nH]cc2-c2ccnc3ccccc23)nc1 [GW271431]
Solution: 2%

Exercise: Please look at this compound and report its %Inh: Cl.Oc1cccc(Nc2ccnc3cc(-c4ccncc4)ccc23)c1 [GW494601]
Solution: 84%

###

Each entry below lists one item and its recorded %Inh value.
- Test system: TBK1
- CONDITION_SET: concentration: 1 μM, replicates: in singlicate; n = 1
Write the number in % without appending the unit.

The cases that follow already have their %Inh on record.
| COMPOUND | SYSTEM_TESTED | %Inh [%] |
| --- | --- | --- |
| NS(=O)(=O)CCc1cccc(Nc2nccc(-c3c(-c4cccc(NC(=O)c5c(F)cccc5F)c4)nn4ccccc34)n2)c1 | TBK1 | 15 |
| CC(=O)Nc1ccc(COc2ccc(Nc3ccnc4cc(-c5ccccn5)ccc34)cc2)cc1.Cl | TBK1 | 21 |
| CN(C(=O)c1ccc(-c2cc(-c3c[nH]nc3-c3ccccn3)ccn2)cc1)C1CCOCC1 | TBK1 | 0 |
| Cc1c2ccc(N(C)c3ccnc(Nc4cccc(S(N)(=O)=O)c4)n3)cc2nn1Cc1ccccc1.Cl.Cl | TBK1 | 35 |
| N#Cc1ccc(-c2cc(-c3c[nH]nc3-c3ccccn3)ccn2)cc1 | TBK1 | 6 |
| Nc1nc(-c2ccc3c(N)n[nH]c3c2)cc(N2CCCC2)n1 | TBK1 | 18 |

Exercise: Please look at this compound and report its %Inh: Cc1ccc(C(=O)NCC(N)=O)cc1-n1c(C)cc(OCc2ccc(F)cc2F)c(Br)c1=O
Solution: 36

Exercise: Please look at this compound and report its %Inh: CC(C)Oc1ccc2c(-c3ccnc(Nc4ccc(N5CCN(C)CC5)cc4)n3)cnn2n1
Solution: 97.9

Exercise: Please look at this compound and report its %Inh: O=C(Nc1cccc(-c2nn3ncccc3c2-c2ccnc(Nc3cccc(C(F)(F)F)c3)n2)c1)c1c(F)cccc1F
Solution: 6

Exercise: Please look at this compound and report its %Inh: COc1ccc(Nc2nccc(N3CCC(NC(=O)Nc4cccc(C(C)=O)c4)C3)n2)cc1 (centres unmarked)
Solution: 0

Exercise: Please look at this compound and report its %Inh: COc1cc2c(cc1OCCN1CCN(C)CC1)ncc1c3ccc(C#N)cc3[nH]c21
Solution: 83
